The origin of these recorded values is patent US20240317871A1.

Biological target: T1, cynomolgus monkey HVEM (cynomolgus monkey, UniProt A0A2K5W0R1 39-203); further: test concentration or dose not given here
T1 sequence: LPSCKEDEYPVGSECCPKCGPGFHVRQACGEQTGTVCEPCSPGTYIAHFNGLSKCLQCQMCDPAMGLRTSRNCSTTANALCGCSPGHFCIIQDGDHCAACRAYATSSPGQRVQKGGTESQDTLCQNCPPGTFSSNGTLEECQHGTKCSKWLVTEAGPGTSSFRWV
Assay: ELISA
Endpoint: ELISA signal

Ab_009 (H5S14-8A7A) (antibody, V domains shown, also called Ab_9) VH: EVKLVESGGDLVKPGGSLKLSCAASGFTFSNYAMSWVRQTPEKRLEWVASISTGGTTSYYSDSVKGRFTISRDNARNILYLQMSSLRSEDTAMYYCARGGGGNYFWFTYWGQGTLVTISA VL: DVVMTQTPLSLPVSLGDQASISCRSSQSLVHSNGNTYLHWYLQKPGQSPKLLIYKVSNRFSGVPDRFSGSGSGTDFTLKISRVEAEDLGVYFCSQSTHVPFTFGSGTKLEIK :: 1.88
Ab_024 (H5S15-1A1A) (antibody, V domains shown, also called Ab_24) VH: EVQLQQSGAELVKPGASVKLSCTASGFNIKDTYMHWVKQRPEQGLAWIGRIAPANGYTKYDPKFQGKATITTDTSSNTAYLHLSRLTSEDTAVYYCANYFGNTYDWFAFWGQGTLVTVSA VL: ENVLTQSPAIMSASPGEKVTMTCSAGSSVSYMHWYQQKSSTSPKLWIYDTSKLPSGVPGRFSGSGSGNSYSLTISSMEAEDVATYYCFQGSGFPLTFGSGTKLEIK :: 0.063
